molecular target: Gag-Pol polyprotein (Human immunodeficiency virus type 1 group M subtype B (isolate HXB2)); test: RNase H inhibition, HIV 1 Gag Pol polyprotein, FRET biochemical assay, screening (AID 372); settings: HIV-1 RT RNase H, FRET RNA/DNA substrate fluorescence; at 10 µM
Screen size: about 100,000 compounds; about 770 (0.77%) were called active. Cut-off read from the data, not from the text of the source: active = inhibition above about 50%; inactive = the rest. The sample as a whole holds a higher share of actives than the screen did.
One label from this list, please: active, inactive

{"columns": ["compound", "qualitative-label"],
 "data": [
  ["Cc1ccc(-c2ccc(C=C3C(=O)NC(=O)NC3=O)o2)c([N+](=O)[O-])c1", "inactive"],
  ["C#CCSc1nncn1C(=O)/C=C/c1ccco1", "inactive"],
  ["Fc1cccc(-c2nnc(SC(c3ccccc3)c3ccccc3)n2-c2ccccc2)c1", "inactive"]
]}

API: the following record is the query input.
Query: recorded result category for O=C(O)/C=C\C(=O)Nc1ccc(N2CCOCC2)c(C(=O)O)c1 in this test inactive

---

molecular target: Gag-Pol polyprotein (Human immunodeficiency virus type 1 group M subtype B (isolate HXB2)); assay: RNase H inhibition, HIV 1 Gag Pol polyprotein, FRET biochemical assay, screening (AID 372); details: HIV-1 RT RNase H, FRET RNA/DNA substrate fluorescence; at 10 µM; hits give high values
Screen size: about 100,000 compounds; about 770 (0.77%) were called active. Many of the other results were omitted from the sample, so actives are more common in it than they were.
inhibition by entry:
Field format: number, assumed %, no unit text.

Example entries begin here.
{"columns": ["molecule", "tested-on", "reading-unit", "value-reported"],
 "data": [
  ["Cc1cc(C)c(NC(=O)C(C)Sc2nnc(-c3cccc(F)c3)n2-c2ccccc2)c(C)c1 (stereo not drawn)", "Gag-Pol polyprotein (Human immunodeficiency virus type 1 group M subtype B (isolate HXB2))", "%", 54],
  ["COc1ccc(C2CC(=O)N(CCCN(C)C)C2)cc1 (stereo not drawn)", "Gag-Pol polyprotein (Human immunodeficiency virus type 1 group M subtype B (isolate HXB2))", "%", 2],
  ["COc1cc(/C=N/N2C(=O)c3cccc4cccc(c34)C2=O)cc(I)c1O", "Gag-Pol polyprotein (Human immunodeficiency virus type 1 group M subtype B (isolate HXB2))", "%", 13]
]}

Identify inhibition associated with the molecule C=CCOc1ccc(C=O)cc1I 25

Identify inhibition associated with the molecule CCOC(=O)c1c(NC(=O)Cc2ccc(OC)cc2)sc2c1CCN(C(=O)OCC)C2 50

Identify inhibition associated with the molecule CCOC(=O)C1CCN(C(=O)COc2ccc(C)cc2C)CC1 4

Identify inhibition associated with the molecule CCSc1nnc(NC(=O)c2ccc(Cl)cc2)s1 4

Identify inhibition associated with the molecule CCC(=O)Nc1ccc(NC(=S)NC(=O)c2cccc(F)c2)cc1 11

Identify inhibition associated with the molecule Cc1cc2nn(-c3ccccc3)nc2cc1N 50

Identify inhibition associated with the molecule CCc1nnc(NC(=O)c2cnccn2)s1 9

Identify inhibition associated with the molecule NC(=O)N=Nc1c(O)[nH]c2ccc(I)cc12 5

---

molecular target: Gag-Pol polyprotein (Human immunodeficiency virus type 1 group M subtype B (isolate HXB2)); assay: RNase H inhibition, HIV 1 Gag Pol polyprotein, FRET biochemical assay, screening (AID 372); details: HIV-1 RT RNase H, FRET RNA/DNA substrate fluorescence; at 10 µM
Hit rate of the full screen: of about 100,000 compounds, about 770 (0.77%) were called active. Cut-off read from the data, not from the text of the source: active = inhibition above about 50%; inactive = the rest. Many of the other results were omitted from the sample, so actives are more common in it than they were.
One label from this list, please: label 1 = active, label 0 = inactive

{"columns": ["molecule-smiles", "qualitative-label"],
 "data": [
  ["O=C(NCCO)C(=O)Nc1ccc(Oc2ccccc2)cc1", "label 0"],
  ["CCOC(=O)c1c(NC(=O)COc2ccc(Cl)cc2)sc2c1CCN(C(=O)OCC)C2", "label 0"],
  ["Cc1ccc(-c2oc3ccccc3c(=O)c2O)cc1", "label 0"],
  ["CCOc1ccc(C(=O)Nc2ccc(-c3nc4cc(C)ccc4o3)cc2)cc1Cl", "label 0"],
  ["CC1=C(C#N)C(=O)NC(=O)/C1=C\\c1ccc(-c2cc(C)c(C)cc2[N+](=O)[O-])o1", "label 1"],
  ["CCOc1cccc(NC(=O)/C(C#N)=C\\c2ccc(-c3cccc([N+](=O)[O-])c3)o2)c1", "label 0"]
]}

Query: recorded result category for O=c1c(O)c(-c2ccc(O)c(O)c2)oc2cc(O)cc(O)c12 in this test label 1
